procedure.text: photoluminescence quantum yield (fraction); solvent given as SMILES
measurement.parameters: in CC#N
reported.endpoint: photoluminescence quantum yield
// no unit, no text: just the number

Query string: Please report photoluminescence quantum yield for the following compound: "CCN1c2ccc(-c3cc(C(F)(F)F)[nH]n3)cc2Sc2cc(-c3cc(C(F)(F)F)[nH]n3)ccc21"
Result string: 0.46

Query string: Please report photoluminescence quantum yield for the following compound: "CC(C)(C)c1ccc(C2=C(Br)C3=C(c4ccccc4)c4c(Br)c(-c5ccc(C(C)(C)C)cc5)c(-c5ccc(C(C)(C)C)cc5)n4[B-](F)(F)[N+]3=C2c2ccc(C(C)(C)C)cc2)cc1"
Result string: 0.03
